- System: Candida albicans
- testSummary: Antifungal activity against Candida albicans after 48 hrs by CLSI method
- Format: functional
*1 amine or outer side, *2 acyl side, *3 side chain or, on linkers, in order; H or OH if unused. Where a SMILES comes first, the peptide text is derived from it. Bridges are numbered along the chain shown (N, C = ends). [ ]: non-standard residue; d: D form. The star is where a group is joined. hTyr(3S-OH,4S-OH,3'-OSO3H) = N[C@H](C(=O)O)[C@H](O)[C@@H](O)c1ccc(O)c(OS(=O)(=O)O)c1; Orn(4R-OH,5R-OH) = O=C([C@H](C[C@@H](O)[C@@H](O)N[*:3])N[*:1])[*:2]; Pro(3S-OH,4S-Me) = C[C@H]1CN[C@H](C(=O)O)[C@H]1O; X1 = CCCCCOc1ccc(-c2cc(-c3ccc(C(=O)*)cc3)no2)cc1; Gln(3R-OH) = NC(=O)C[C@@H](O)[C@H](N)C(=O)O; Hyp = O=C(O)[C@@H]1C[C@@H](O)CN1
assayEndpoint: MIC90 (µg/mL)

1. CCCCCOc1ccc(-c2cc(-c3ccc(C(=O)N[C@H]4C[C@@H](O)[C@@H](O)NC(=O)[C@@H]5[C@@H](O)[C@@H](C)CN5C(=O)[C@H]([C@H](O)CC(N)=O)NC(=O)[C@H]([C@H](O)[C@@H](O)c5ccc(O)c(OS(=O)(=O)O)c5)NC(=O)[C@@H]5C[C@@H](O)CN5C(=O)[C@H]([C@@H](C)O)NC4=O)cc3)no2)cc1 [MICAFUNGIN] (X1-[Orn(4R-OH,5R-OH)]T[Hyp][hTyr(3S-OH,4S-OH,3'-OSO3H)][Gln(3R-OH)][Pro(3S-OH,4S-Me)]; lactam 1-C) = 0.015

----------
- System: Nakaseomyces glabratus
- testSummary: Antifungal activity against Candida glabrata after 48 hrs by CLSI method
- Type: functional
*1 amine or outer side, *2 acyl side, *3 side chain or, on linkers, in order; H or OH if unused. Where a SMILES comes first, the peptide text is derived from it. Bridges are numbered along the chain shown (N, C = ends). [ ]: non-standard residue; d: D form. The star is where a group is joined. hTyr(3S-OH,4S-OH,3'-OSO3H) = N[C@H](C(=O)O)[C@H](O)[C@@H](O)c1ccc(O)c(OS(=O)(=O)O)c1; pTerphenylCO(4''-OnC5H11) = CCCCCOc1ccc(-c2ccc(-c3ccc(C(=O)*)cc3)cc2)cc1; Orn(4R-OH,5R-OH) = O=C([C@H](C[C@@H](O)[C@@H](O)N[*:3])N[*:1])[*:2]; hTyr(3S-OH,4S-OH) = N[C@H](C(=O)O)[C@H](O)[C@@H](O)c1ccc(O)cc1; Pro(3S-OH,4S-Me) = C[C@H]1CN[C@H](C(=O)O)[C@H]1O; X1 = CCCCCOc1ccc(-c2cc(-c3ccc(C(=O)*)cc3)no2)cc1; Gln(3R-OH) = NC(=O)C[C@@H](O)[C@H](N)C(=O)O; Hyp = O=C(O)[C@@H]1C[C@@H](O)CN1
assayEndpoint: MIC50 (µg/mL)

1. CCCCCOc1ccc(-c2ccc(-c3ccc(C(=O)N[C@H]4C[C@@H](O)[C@@H](O)NC(=O)[C@@H]5[C@@H](O)[C@@H](C)CN5C(=O)[C@H]([C@@H](C)O)NC(=O)[C@H]([C@H](O)[C@@H](O)c5ccc(O)cc5)NC(=O)[C@@H]5C[C@@H](O)CN5C(=O)[C@H]([C@@H](C)O)NC4=O)cc3)cc2)cc1 [ANIDULAFUNGIN] ({pTerphenylCO(4''-OnC5H11)}-[Orn(4R-OH,5R-OH)]T[Hyp][hTyr(3S-OH,4S-OH)]T[Pro(3S-OH,4S-Me)]; lactam 1-C) = 0.03
2. CCCCCOc1ccc(-c2cc(-c3ccc(C(=O)N[C@H]4C[C@@H](O)[C@@H](O)NC(=O)[C@@H]5[C@@H](O)[C@@H](C)CN5C(=O)[C@H]([C@H](O)CC(N)=O)NC(=O)[C@H]([C@H](O)[C@@H](O)c5ccc(O)c(OS(=O)(=O)O)c5)NC(=O)[C@@H]5C[C@@H](O)CN5C(=O)[C@H]([C@@H](C)O)NC4=O)cc3)no2)cc1 [MICAFUNGIN] (X1-[Orn(4R-OH,5R-OH)]T[Hyp][hTyr(3S-OH,4S-OH,3'-OSO3H)][Gln(3R-OH)][Pro(3S-OH,4S-Me)]; lactam 1-C) = 0.06
3. OC(Cn1cncn1)(Cn1cncn1)c1ccc(F)cc1F = 16
4. CCC(C)n1ncn(-c2ccc(N3CCN(c4ccc(OCC5COC(Cn6cncn6)(c6ccc(Cl)cc6Cl)O5)cc4)CC3)cc2)c1=O (stereo not drawn) = 1
5. C[C@@H](c1ncncc1F)[C@](O)(Cn1cncn1)c1ccc(F)cc1F = 0.5
6. CC[C@H](C)C[C@H](C)CCCCCCCCC(=O)N[C@H]1C[C@@H](O)[C@@H](NCCN)NC(=O)[C@@H]2[C@@H](O)CCN2C(=O)[C@H]([C@H](O)CCN)NC(=O)[C@H]([C@H](O)[C@@H](O)c2ccc(O)cc2)NC(=O)[C@@H]2C[C@@H](O)CN2C(=O)[C@H]([C@@H](C)O)NC1=O = 0.25
7. CC[C@@H]([C@H](C)O)n1ncn(-c2ccc(N3CCN(c4ccc(OC[C@@H]5CO[C@@](Cn6cncn6)(c6ccc(F)cc6F)C5)cc4)CC3)cc2)c1=O = 0.5
8. C[C@@H]1[C@H](O)[C@@H](C)/C=C/C=C/C=C/C=C/C=C/C=C/C=C/[C@H](O[C@@H]2O[C@H](C)[C@@H](O)[C@H](N)[C@@H]2O)C[C@@H]2O[C@](O)(C[C@@H](O)C[C@@H](O)[C@H](O)CC[C@@H](O)C[C@@H](O)CC(=O)O[C@H]1C)C[C@H](O)[C@H]2C(=O)O = 2

----------
- Test system: Pichia kudriavzevii
- testSummary: Antifungal activity against Candida krusei after 48 hrs by CLSI method
- Type: functional
*1 amine or outer side, *2 acyl side, *3 side chain or, on linkers, in order; H or OH if unused. Where a SMILES comes first, the peptide text is derived from it. Bridges are numbered along the chain shown (N, C = ends). [ ]: non-standard residue; d: D form. The star is where a group is joined. hTyr(3S-OH,4S-OH,3'-OSO3H) = N[C@H](C(=O)O)[C@H](O)[C@@H](O)c1ccc(O)c(OS(=O)(=O)O)c1; pTerphenylCO(4''-OnC5H11) = CCCCCOc1ccc(-c2ccc(-c3ccc(C(=O)*)cc3)cc2)cc1; Orn(4R-OH,5R-OH) = O=C([C@H](C[C@@H](O)[C@@H](O)N[*:3])N[*:1])[*:2]; hTyr(3S-OH,4S-OH) = N[C@H](C(=O)O)[C@H](O)[C@@H](O)c1ccc(O)cc1; Pro(3S-OH,4S-Me) = C[C@H]1CN[C@H](C(=O)O)[C@H]1O; X1 = CCCCCOc1ccc(-c2cc(-c3ccc(C(=O)*)cc3)no2)cc1; Gln(3R-OH) = NC(=O)C[C@@H](O)[C@H](N)C(=O)O; Hyp = O=C(O)[C@@H]1C[C@@H](O)CN1
Overview of reported MIC50 across a group of compounds:
assayEndpoint: MIC50 (µg/mL)

1) C[C@@H]1[C@H](O)[C@@H](C)/C=C/C=C/C=C/C=C/C=C/C=C/C=C/[C@H](O[C@@H]2O[C@H](C)[C@@H](O)[C@H](N)[C@@H]2O)C[C@@H]2O[C@](O)(C[C@@H](O)C[C@@H](O)[C@H](O)CC[C@@H](O)C[C@@H](O)CC(=O)O[C@H]1C)C[C@H](O)[C@H]2C(=O)O = 2
2) OC(Cn1cncn1)(Cn1cncn1)c1ccc(F)cc1F = 32
3) CCCCCOc1ccc(-c2ccc(-c3ccc(C(=O)N[C@H]4C[C@@H](O)[C@@H](O)NC(=O)[C@@H]5[C@@H](O)[C@@H](C)CN5C(=O)[C@H]([C@@H](C)O)NC(=O)[C@H]([C@H](O)[C@@H](O)c5ccc(O)cc5)NC(=O)[C@@H]5C[C@@H](O)CN5C(=O)[C@H]([C@@H](C)O)NC4=O)cc3)cc2)cc1 [ANIDULAFUNGIN] ({pTerphenylCO(4''-OnC5H11)}-[Orn(4R-OH,5R-OH)]T[Hyp][hTyr(3S-OH,4S-OH)]T[Pro(3S-OH,4S-Me)]; lactam 1-C) = 0.12
4) CC[C@H](C)C[C@H](C)CCCCCCCCC(=O)N[C@H]1C[C@@H](O)[C@@H](NCCN)NC(=O)[C@@H]2[C@@H](O)CCN2C(=O)[C@H]([C@H](O)CCN)NC(=O)[C@H]([C@H](O)[C@@H](O)c2ccc(O)cc2)NC(=O)[C@@H]2C[C@@H](O)CN2C(=O)[C@H]([C@@H](C)O)NC1=O = 1
5) CCCCCOc1ccc(-c2cc(-c3ccc(C(=O)N[C@H]4C[C@@H](O)[C@@H](O)NC(=O)[C@@H]5[C@@H](O)[C@@H](C)CN5C(=O)[C@H]([C@H](O)CC(N)=O)NC(=O)[C@H]([C@H](O)[C@@H](O)c5ccc(O)c(OS(=O)(=O)O)c5)NC(=O)[C@@H]5C[C@@H](O)CN5C(=O)[C@H]([C@@H](C)O)NC4=O)cc3)no2)cc1 [MICAFUNGIN] (X1-[Orn(4R-OH,5R-OH)]T[Hyp][hTyr(3S-OH,4S-OH,3'-OSO3H)][Gln(3R-OH)][Pro(3S-OH,4S-Me)]; lactam 1-C) = 0.25
6) C[C@@H](c1ncncc1F)[C@](O)(Cn1cncn1)c1ccc(F)cc1F = 0.5
7) CC[C@@H]([C@H](C)O)n1ncn(-c2ccc(N3CCN(c4ccc(OC[C@@H]5CO[C@@](Cn6cncn6)(c6ccc(F)cc6F)C5)cc4)CC3)cc2)c1=O = 0.25
8) CCC(C)n1ncn(-c2ccc(N3CCN(c4ccc(OCC5COC(Cn6cncn6)(c6ccc(Cl)cc6Cl)O5)cc4)CC3)cc2)c1=O (stereo not drawn) = 0.5
